# test-protocol: Stability of peptide 4 in distilled water, 40° C., 24 hours (reverse phase HPLC)
# Assay type: physicochemical
# stated-conditions: pH 6.0, distilled water, 10 μg/ml, 40° C., read-out: Amount of remaining peptide
recorded-endpoint: remaining at 24 h, 10 μg/ml (%)
A number alone suffices; assume %.

Qu. Looking for the measured remaining at 24 h, 10 μg/ml of H-HSDAVFTDNYTRLRRQLAVRRYLNSILNGRR-NH2 [Peptide 4, reference compound] , can you help?
Ans. 93

----------
# test-protocol: physchem
# Assay type: physicochemical
# stated-conditions: buffer, pH 7
Field: remaining at 168 h, 100 μg/ml. Provide a value for each of the substances that follow.
// return the numeric value with its unit appended

Qu. Looking for the measured remaining at 168 h, 100 μg/ml of H-HSDAVFTDNYTRLRRQLAVRRYLAAILGRR-NH2 [Peptide 12] , can you help?
Ans. 90%

Qu. Looking for the measured remaining at 168 h, 100 μg/ml of H-HSDAVFTENYTRLRRQLAVRRYLAAILGRR-NH2 [Peptide 21] , can you help?
Ans. 87%

Qu. Looking for the measured remaining at 168 h, 100 μg/ml of H-HSDAVFTDNYTRLRRQLAVRRYLNSILNGRR-NH2 [Peptide 4, reference compound] , can you help?
Ans. 35%
